Overview of recorded folding stability dG for various variants
B1: 2K2A (parent)
chain: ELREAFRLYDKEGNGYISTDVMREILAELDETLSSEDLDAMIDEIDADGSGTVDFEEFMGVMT

# Variants of: B1
# Experiment: folding stability dG (cDNA display proteolysis); higher = more stable
# Experimental context: PBS, room temperature

Variant key: D46P
Measure unit: kcal/mol
folding stability dG: -0.155
//
Variant key: E28Y
Measure unit: kcal/mol
folding stability dG: 1.83
//
Variant key: G60R
Measure unit: kcal/mol
folding stability dG: 2.82
//
Variant key: L38Y
Measure unit: kcal/mol
folding stability dG: 0.134
//
Variant key: F6R
Measure unit: kcal/mol
folding stability dG: 0.468
//
Variant key: R3L
Measure unit: kcal/mol
folding stability dG: 2.2
//
Variant key: E28L
Measure unit: kcal/mol
folding stability dG: 2.25
//
Variant key: R3M
Measure unit: kcal/mol
folding stability dG: 1.93
//
Variant key: Y16R
Measure unit: kcal/mol
folding stability dG: 1.15
//
Variant key: R7S
Measure unit: kcal/mol
folding stability dG: 1.97
//
Variant key: S35Y
Measure unit: kcal/mol
folding stability dG: 1.53
//
Variant key: F55K
Measure unit: kcal/mol
folding stability dG: 0.132
//
Variant key: T19G
Measure unit: kcal/mol
folding stability dG: 0.526
//
Variant key: N14I
Measure unit: kcal/mol
folding stability dG: 1.73
//
Variant key: G60T
Measure unit: kcal/mol
folding stability dG: 2.37
//
Variant key: E1G
Measure unit: kcal/mol
folding stability dG: 2.03
//
Variant key: S50A
Measure unit: kcal/mol
folding stability dG: 1.11
//
Variant key: G51A
Measure unit: kcal/mol
folding stability dG: 0.849
//
Variant key: G15H
Measure unit: kcal/mol
folding stability dG: 0.458
//
Variant key: D39Q
Measure unit: kcal/mol
folding stability dG: 1.57
//
Variant key: E1H
Measure unit: kcal/mol
folding stability dG: 2.1
//
Variant key: G13W
Measure unit: kcal/mol
folding stability dG: 0.579
//
Variant key: K11T
Measure unit: kcal/mol
folding stability dG: 1.94
//
Variant key: L2Y
Measure unit: kcal/mol
folding stability dG: 1.96
//
Variant key: L38V
Measure unit: kcal/mol
folding stability dG: 1.52
//
Variant key: M62D
Measure unit: kcal/mol
folding stability dG: 0.171
//
Variant key: E12C
Measure unit: kcal/mol
folding stability dG: 1.61
//
Variant key: E24M
Measure unit: kcal/mol
folding stability dG: 2.52
//
Variant key: Y16P
Measure unit: kcal/mol
folding stability dG: -0.96
//
Variant key: T19S
Measure unit: kcal/mol
folding stability dG: 1.23
//
Variant key: S34P
Measure unit: kcal/mol
folding stability dG: 0.476
//
Variant key: E28M
Measure unit: kcal/mol
folding stability dG: 2.28
//
Variant key: T19H
Measure unit: kcal/mol
folding stability dG: 1.01
//
Variant key: I25C
Measure unit: kcal/mol
folding stability dG: 0.786
//
Variant key: G15K
Measure unit: kcal/mol
folding stability dG: 0.271
//
Variant key: I45G
Measure unit: kcal/mol
folding stability dG: 0.37
//
Variant key: V61C
Measure unit: kcal/mol
folding stability dG: 1.86
